# systemUnderTest: VIM-1 (Pseudomonas aeruginosa, UniProt A0A0F7KYQ8)
# testDetails: IC50 of beta-lactamase inhibition (nitrocefin hydrolysis)
# Format: biochemical
# conditionsUsed: read-out: IC50 (nM) of drug
valueType: IC50 (nM)

molecule="O=C(O)c1c(F)ccc2c1OB(O)[C@@H]1C[C@H]21 [QPX7728]" valuetype=IC50 val=14

----------
# systemUnderTest: CTX-M-15 (Escherichia coli, UniProt Q9EXV5)
valueType: Kd (pM)

linenotation=O=C(O)c1c(F)ccc2c1OB(O)[C@@H]1C[C@H]21 systemundertest="CTX-M-15 (Escherichia coli, UniProt Q9EXV5)" val=110

----------
# systemUnderTest: IMP-1 (Serratia marcescens, UniProt P52699)
valueType: Kd (nM)

compound="O=C(O)c1c(F)ccc2c1OB(O)[C@@H]1C[C@H]21 [QPX7728]" systemundertest="IMP-1 (Serratia marcescens, UniProt P52699)" measurementunit=nM val=240
